FYI, the data here is from ChEMBL document CHEMBL4342467.

studySystem: Mitogen-activated protein kinase 1 (Homo sapiens) (UniProt P28482)
Sequence (P28482 whole entry): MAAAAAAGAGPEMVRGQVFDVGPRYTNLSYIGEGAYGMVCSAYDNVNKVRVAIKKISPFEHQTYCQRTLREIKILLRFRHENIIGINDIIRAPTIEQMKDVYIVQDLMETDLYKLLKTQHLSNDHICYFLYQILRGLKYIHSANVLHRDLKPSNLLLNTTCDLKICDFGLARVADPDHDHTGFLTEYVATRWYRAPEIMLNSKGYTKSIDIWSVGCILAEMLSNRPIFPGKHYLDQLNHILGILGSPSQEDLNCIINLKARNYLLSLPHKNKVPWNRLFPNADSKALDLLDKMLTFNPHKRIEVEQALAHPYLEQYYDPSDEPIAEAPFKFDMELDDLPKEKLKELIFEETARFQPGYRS
procedureText: Inhibition of ERK2 (unknown origin) at 1 uM by Z'-Lyte assay relative to control
readoutType: inhibition (%)

smilesCode	inhibition (%)
NC(=O)c1c(NC(=O)c2ccccc2Cl)sc2c1CCN(Cc1ccccc1)C2	62.9
NC(=O)c1c(NC(=O)c2ccncn2)sc2c1CCN(C(=S)Nc1ccccc1Cl)C2	45.7
NC(=O)c1c(NC(=O)c2ccccc2I)sc2c1CCN(C(=S)Nc1ccccc1Br)C2	80
NC(=O)c1c(NC(=O)c2ccccc2Cl)sc2c1CCN(C(=O)Nc1ccccc1Cl)C2	88.4
N#Cc1ccccc1CN1CCc2c(sc(NC(=O)c3ccccc3Cl)c2C(N)=O)C1	42.1
NC(=O)c1c(NC(=O)c2ccccc2Cl)sc2c1CCN(Cc1c(Cl)cccc1Cl)C2	78.1

1 = NC(=O)c1c(NC(=O)c2ccccc2Br)sc2c1CCN(C(=S)Nc1ccccc1C(F)(F)F)C2
2 = Cc1ccccc1NC(=S)N1CCc2c(sc(NC(=O)c3ccccc3C)c2C(N)=O)C1
Sort 1 and 2 by inhibition descending and give the first. Let me know the label of the one you choose.
1
(1: 72.1%, 2: 43%)

1 = NC(=O)c1c(NC(=O)c2ccc(C(F)(F)F)cc2)sc2c1CCN(C(=O)Nc1ccccc1Cl)C2
2 = NC(=O)c1c(NC(=O)c2cccc([N+](=O)[O-])c2)sc2c1CCN(Cc1c(Cl)cccc1Cl)C2
Compare 1 and 2 and name the one whose reported inhibition is smaller. Let me know the label of the one you choose.
2
(2: 29.3%, 1: 77.6%)

P = NC(=O)c1c(NC(=O)c2ccccc2)sc2c1CCN(C(=S)Nc1ccccc1Cl)C2
Q = NC(=O)c1c(NC(=O)c2ccc(C(F)(F)F)cc2)sc2c1CCN(Cc1ccc(Cl)cc1Cl)C2
Sort P and Q by inhibition descending and give the first. Let me know the label of the one you choose.
P
(P: 77.5%, Q: 33.2%)

====

studySystem: Mitogen-activated protein kinase 1 (Homo sapiens)
procedureText: Inhibition of ERK2 (unknown origin) at 1 uM by Z'-Lyte assay relative to control
readoutType: inhibition (%)

smilesCode	outputUnit	reportedMeasurement
NC(=O)c1c(NC(=O)c2ccccc2Cl)sc2c1CCN(C(=S)Nc1cccc3ccccc13)C2	%	81.3
NC(=O)c1c(NC(=O)c2ccc(C(F)(F)F)cc2)sc2c1CCN(C(=S)Nc1ccccc1Cl)C2	%	79
NC(=O)c1c(NC(=O)c2ccccc2C(F)(F)F)sc2c1CCN(C(=S)Nc1ccccc1F)C2	%	81.6
NC(=O)c1c(NC(=O)c2ccccc2I)sc2c1CCN(C(=S)Nc1ccccc1C(F)(F)F)C2	%	80.7

====

studySystem: Mitogen-activated protein kinase 7 (Homo sapiens) (UniProt Q13164)
Sequence (Q13164 2-816 limits assumed): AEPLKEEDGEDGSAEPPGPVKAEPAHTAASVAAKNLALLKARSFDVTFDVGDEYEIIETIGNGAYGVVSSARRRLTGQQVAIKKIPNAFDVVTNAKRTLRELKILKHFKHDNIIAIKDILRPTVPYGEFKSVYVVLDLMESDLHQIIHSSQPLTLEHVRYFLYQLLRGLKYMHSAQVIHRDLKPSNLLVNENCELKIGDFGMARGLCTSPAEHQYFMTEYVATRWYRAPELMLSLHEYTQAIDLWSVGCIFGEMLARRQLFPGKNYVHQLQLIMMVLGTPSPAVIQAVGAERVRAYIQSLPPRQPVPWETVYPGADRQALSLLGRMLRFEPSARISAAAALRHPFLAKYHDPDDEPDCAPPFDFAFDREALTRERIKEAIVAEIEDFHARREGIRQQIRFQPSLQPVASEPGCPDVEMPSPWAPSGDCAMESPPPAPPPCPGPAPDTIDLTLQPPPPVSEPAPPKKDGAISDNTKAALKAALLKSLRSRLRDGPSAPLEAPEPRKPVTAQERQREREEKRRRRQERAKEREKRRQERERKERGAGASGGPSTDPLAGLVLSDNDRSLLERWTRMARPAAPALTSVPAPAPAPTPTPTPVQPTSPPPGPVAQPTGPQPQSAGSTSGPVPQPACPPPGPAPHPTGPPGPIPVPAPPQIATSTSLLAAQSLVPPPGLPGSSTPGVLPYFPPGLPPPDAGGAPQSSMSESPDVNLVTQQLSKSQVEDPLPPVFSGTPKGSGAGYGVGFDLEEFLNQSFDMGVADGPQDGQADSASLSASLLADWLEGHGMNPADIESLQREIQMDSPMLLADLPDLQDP
procedureText: Inhibition of ERK5 (unknown origin) at 1 uM by Z'-Lyte assay relative to control
readoutType: inhibition (%)

The examples below pair each entry with its known result.
smilesCode	outputUnit	inhibition
NC(=O)c1c(NC(=O)c2ccccc2F)sc2c1CCN(Cc1ccc(Cl)cc1Cl)C2	%	38
NC(=O)c1c(NC(=O)c2ccccc2Cl)sc2c1CCN(C(=S)Nc1ccccc1F)C2	%	70.7
CCCCCC(=O)Nc1sc2c(c1C(N)=O)CCN(C(=S)NCCCC)C2	%	43.3
NC(=O)c1c(NC(=O)c2ccccc2I)sc2c1CCN(C(=S)Nc1ccccc1Cl)C2	%	80.4

a = NC(=O)c1c(NC(=O)c2cccc([N+](=O)[O-])c2)sc2c1CCN(Cc1c(Cl)cccc1Cl)C2
b = NC(=O)c1c(NC(=O)c2ccccc2Br)sc2c1CCN(C(=S)Nc1ccccc1F)C2
Sort a and b by inhibition descending and give the first. Let me know the label of the one you choose.
b
(b: 65.7%, a: 45.2%)

A = NC(=O)c1c(NC(=O)c2ccccc2Cl)sc2c1CCNC2
B = NC(=O)c1c(NC(=O)c2ccncn2)sc2c1CCN(C(=S)Nc1ccccc1Cl)C2
Compare A and B and name the one whose reported inhibition is smaller. Let me know the label of the one you choose.
B

A = N#Cc1ccccc1CN1CCc2c(sc(NC(=O)c3ccccc3Cl)c2C(N)=O)C1
B = NC(=O)c1c(NC(=O)c2ccccc2Br)sc2c1CCN(C(=S)Nc1ccccc1Br)C2
Compare A and B and name the one whose reported inhibition is smaller. Let me know the label of the one you choose.
A
